Listed binders paired with reported koff
Biological target: T1, hu-IL-36α (human IL-36α, N-terminally truncated active form K6-F158) (human, UniProt Q9UHA7 6-158)
T1 construct: Purification tag cleaved off; Biotinylated where captured (SPR, some ELISAs); also called hu-IL-36a
T1 sequence: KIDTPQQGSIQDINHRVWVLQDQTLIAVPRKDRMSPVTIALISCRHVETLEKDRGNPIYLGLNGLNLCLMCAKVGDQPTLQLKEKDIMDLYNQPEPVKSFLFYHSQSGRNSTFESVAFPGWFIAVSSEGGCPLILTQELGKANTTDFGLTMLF
Assay: SPR (Biacore 8K), biotinylated hu-IL-36 captured on CAP chip, Fab injected, 37°C
readout.kind: koff

binder	measurement
mAb2.8 Fab (Fab, V domains shown, Recombinant Fab with 8xHis tag (Expi293F)) VH: ELQLQESGPGLVKPSETLSLTCTVSGGSISDSSYYWGWIRQPPGKGLEWIGSIYYTGETYYAPSLKSRVTISVDTSKNQFSLKLSSVTAADTAVYYCARLRYGVGVPRYFDPWGQGTLVTVSS VL: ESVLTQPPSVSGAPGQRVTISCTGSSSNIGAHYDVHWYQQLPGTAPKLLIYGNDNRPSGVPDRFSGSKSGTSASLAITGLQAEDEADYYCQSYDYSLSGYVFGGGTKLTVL	0.000254 s⁻¹
mAb2.12 Fab (Fab, V domains shown, Recombinant Fab with 8xHis tag (Expi293F)) VH: ELQLQESGPGLVKPSETLSLTCTVSGGSISESSYYWGWIRQPPGKGLEWIGSIYYTGETYYAPSLKSRVTISVDTSKNQFSLKLSSVTAADTAVYYCARVKYGVGVPRYFDPWGQGTLVTVSS VL: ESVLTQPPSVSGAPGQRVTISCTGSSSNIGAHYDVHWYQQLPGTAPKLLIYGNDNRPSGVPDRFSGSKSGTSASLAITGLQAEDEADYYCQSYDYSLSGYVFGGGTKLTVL	0.000277 s⁻¹
mAb2.10 Fab (Fab, V domains shown, Recombinant Fab with 8xHis tag (Expi293F)) VH: ELQLQESGPGLVKPSETLSLTCTVSGGSISDSSYYWGWIRQPPGKGLEWIGSIYYTGETYYAPSLKSRVTISVDTSKNQFSLKLSSVTAADTAVYYCARVRYGVGVPRHFDPWGQGTLVTVSS VL: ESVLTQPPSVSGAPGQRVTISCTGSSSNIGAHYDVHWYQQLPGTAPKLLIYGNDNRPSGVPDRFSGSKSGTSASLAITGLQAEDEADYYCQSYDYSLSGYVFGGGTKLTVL	0.000222 s⁻¹
mAb2.9 Fab (Fab, V domains shown, Recombinant Fab with 8xHis tag (Expi293F)) VH: ELQLQESGPGLVKPSETLSLTCTVSGGSISDSSYYWGWIRQPPGKGLEWIGSIYYTGETYYAPSLKSRVTISVDTSKNQFSLKLSSVTAADTAVYYCARVKYGVGVPRYFDPWGQGTLVTVSS VL: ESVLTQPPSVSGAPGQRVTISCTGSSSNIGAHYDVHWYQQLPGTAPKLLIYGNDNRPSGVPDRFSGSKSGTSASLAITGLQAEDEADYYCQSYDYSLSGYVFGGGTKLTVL	0.00026 s⁻¹
mAb2.11 Fab (Fab, V domains shown, Recombinant Fab with 8xHis tag (Expi293F)) VH: ELQLQESGPGLVKPSETLSLTCTVSGGSISESSYYWGWIRQPPGKGLEWIGSIYYTGETYYAPSLKSRVTISVDTSKNQFSLKLSSVTAADTAVYYCARLRYGVGVPRYFDPWGQGTLVTVSS VL: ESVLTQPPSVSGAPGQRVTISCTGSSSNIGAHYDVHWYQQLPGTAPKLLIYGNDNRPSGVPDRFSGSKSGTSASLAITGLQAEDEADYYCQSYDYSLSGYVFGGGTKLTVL	0.000244 s⁻¹
